System: 388556-164-R-J1-PDC complex spheroid viability;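 further: spheroids exposed to compound for 7 days before readout; 100% = DMSO vehicle control luminescence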
assay-overview: Anticancer human tumor 388556-164-R-J1-PDC patient-derived colon adenocarcinoma cell line growth inhibition [RAS]
test-settings: second compound 0.000949 µM; first compound 1 µM; active compounds read low
Please provide measured viability, T/C for the entries that follow.

molecule	viability, T/C
O=C(c1ccc(F)c(F)c1Nc1ccc(I)cc1F)N1CC(O)([C@@H]2CCCCN2)C1 + CCn1c(-c2cc(N3CCN(C)CC3)cnc2C(C)OC)c2c3cc(ccc31)-c1csc(n1)CC(NC(=O)C1CC1C)C(=O)N1CCCC(N1)C(=O)OCC(C)(C)C2	19.9%
C=CC(=O)Nc1cc(Nc2nccc(-c3cn(C)c4ccccc34)n2)c(OC)cc1N(C)CCN(C)C + CCn1c(-c2cc(N3CCN(C)CC3)cnc2C(C)OC)c2c3cc(ccc31)-c1csc(n1)CC(NC(=O)C1CC1C)C(=O)N1CCCC(N1)C(=O)OCC(C)(C)C2	46.4%
NC1c2ccccc2OC12CCN(c1cnc3c(N4CCCc5ncccc54)n[nH]c3n1)CC2 (stereo not given) + CCn1c(-c2cc(N3CCN(C)CC3)cnc2C(C)OC)c2c3cc(ccc31)-c1csc(n1)CC(NC(=O)C1CC1C)C(=O)N1CCCC(N1)C(=O)OCC(C)(C)C2	39.8%
Cc1nc(N2CCC3(CC2)COC(C)C3N)c(CO)nc1Sc1ccnc(N)c1Cl (stereo not given) + CCn1c(-c2cccnc2C(C)OC)c2c3cc(ccc31)N1CCOC(CC(NC(=O)C(C(C)C)N(C)C(=O)C3(F)CCN(C(=O)C#CC(C)(C)N(C)C)CC3)C(=O)N3CCCC(N3)C(=O)OCC(C)(C)C2)C1	55.2%
NC1c2ccccc2OC12CCN(c1cnc3c(N4CCCc5ncccc54)n[nH]c3n1)CC2 (stereo not given) + CCn1c(-c2cccnc2C(C)OC)c2c3cc(ccc31)N1CCOC(CC(NC(=O)C(C(C)C)N(C)C(=O)C3(F)CCN(C(=O)C#CC(C)(C)N(C)C)CC3)C(=O)N3CCCC(N3)C(=O)OCC(C)(C)C2)C1	40.4%
C[C@@H](NC(=O)c1ncnc(N)c1Cl)c1ncc(C(=O)Nc2cc(C(F)(F)F)c(Cl)cn2)s1 + CCn1c(-c2cccnc2C(C)OC)c2c3cc(ccc31)N1CCOC(CC(NC(=O)C(C(C)C)N(C)C(=O)C3(F)CCN(C(=O)C#CC(C)(C)N(C)C)CC3)C(=O)N3CCCC(N3)C(=O)OCC(C)(C)C2)C1	123%
Nc1ccn(C2OC(CO)C(O)C2(F)F)c(=O)n1 (stereo not given) + CCn1c(-c2cccnc2C(C)OC)c2c3cc(ccc31)N1CCOC(CC(NC(=O)C(C(C)C)N(C)C(=O)C3(F)CCN(C(=O)C#CC(C)(C)N(C)C)CC3)C(=O)N3CCCC(N3)C(=O)OCC(C)(C)C2)C1	64.1%
Nc1ccn(C2OC(CO)C(O)C2(F)F)c(=O)n1 (stereo not given) + CCn1c(-c2cc(N3CCN(C)CC3)cnc2C(C)OC)c2c3cc(ccc31)-c1csc(n1)CC(NC(=O)C1CC1C)C(=O)N1CCCC(N1)C(=O)OCC(C)(C)C2	71.1%

Would you mind giving viability, T/C for every molecule in the list below?
1. CC(=O)OC12COC1CC(O)C1(C)C(=O)C(O)C3=C(C)C(OC(=O)C(O)C(NC(=O)OC(C)(C)C)c4ccccc4)CC(O)(C(OC(=O)c4ccccc4)C21)C3(C)C (stereo not given) + CCn1c(-c2cc(N3CCN(C)CC3)cnc2C(C)OC)c2c3cc(ccc31)-c1csc(n1)CC(NC(=O)C1CC1C)C(=O)N1CCCC(N1)C(=O)OCC(C)(C)C2
2. C=CC(=O)N1CCN(c2nc(OCC3CCCN3C)nc3c(F)c(-c4nc(N)cc(C)c4C(F)(F)F)c(Cl)cc23)C(C)C1 (stereo not given) + CCn1c(-c2cc(N3CCN(C)CC3)cnc2C(C)OC)c2c3cc(ccc31)-c1csc(n1)CC(NC(=O)C1CC1C)C(=O)N1CCCC(N1)C(=O)OCC(C)(C)C2

stdout:
1: 66.1%; 2: 93.5%

Would you mind giving viability, T/C for every molecule in the list below?
1. O=C(c1ccc(F)c(F)c1Nc1ccc(I)cc1F)N1CC(O)([C@@H]2CCCCN2)C1 + CCn1c(-c2cccnc2C(C)OC)c2c3cc(ccc31)N1CCOC(CC(NC(=O)C(C(C)C)N(C)C(=O)C3(F)CCN(C(=O)C#CC(C)(C)N(C)C)CC3)C(=O)N3CCCC(N3)C(=O)OCC(C)(C)C2)C1
2. CC(C)NCC(C(=O)N1CCN(c2ncnc3c2C(C)CC3O)CC1)c1ccc(Cl)cc1 (stereo not given) + CCn1c(-c2cc(N3CCN(C)CC3)cnc2C(C)OC)c2c3cc(ccc31)-c1csc(n1)CC(NC(=O)C1CC1C)C(=O)N1CCCC(N1)C(=O)OCC(C)(C)C2

stdout:
1. 25.2%
2. 91.2%

Would you mind giving viability, T/C for every molecule in the list below?
1. CC(C)NCC(C(=O)N1CCN(c2ncnc3c2C(C)CC3O)CC1)c1ccc(Cl)cc1 (stereo not given) + CCn1c(-c2cccnc2C(C)OC)c2c3cc(ccc31)N1CCOC(CC(NC(=O)C(C(C)C)N(C)C(=O)C3(F)CCN(C(=O)C#CC(C)(C)N(C)C)CC3)C(=O)N3CCCC(N3)C(=O)OCC(C)(C)C2)C1
2. CC(Nc1ccc2c(c1)OCCn1cc(N3C(=O)OCC3C(F)F)nc1-2)C(N)=O (stereo not given) + CCn1c(-c2cccnc2C(C)OC)c2c3cc(ccc31)N1CCOC(CC(NC(=O)C(C(C)C)N(C)C(=O)C3(F)CCN(C(=O)C#CC(C)(C)N(C)C)CC3)C(=O)N3CCCC(N3)C(=O)OCC(C)(C)C2)C1

stdout:
["89.8%", "79.4%"]

stdin: What does the record list as viability, T/C for CCC(CC)c1cc(NC2CCC(N)C2)n2nccc2n1 (stereo not given) + CCn1c(-c2cccnc2C(C)OC)c2c3cc(ccc31)N1CCOC(CC(NC(=O)C(C(C)C)N(C)C(=O)C3(F)CCN(C(=O)C#CC(C)(C)N(C)C)CC3)C(=O)N3CCCC(N3)C(=O)OCC(C)(C)C2)C1 ?
stdout: 106%
